For each record, write down the corresponding GI50.
Test system: UACC-62
Test: NCI tumour cell line growth inhibition, 48 h
The source made the active and inactive calls. Rule as the data show it: active = GI50 up to about 1.1 µM and inactive = higher.

(Q) # returns recorded GI50 (system: UACC-62) for `Cc1c(Cl)nc(Nc2nc3ccccc3[nH]2)nc1Cl`
(A) > 100 µM (inactive)

(Q) // query: `CCOC(=O)c1ccc(Nc2nc3cc(C(F)(F)F)ccc3nc2C(=O)OCC)cc1`
(A) 66.5 µM (inactive)

(Q) // query: CCOC(=O)CCC(NC(=O)c1ccc(NCc2ccc3nc(-c4ccccc4)c(Cl)nc3c2)c2ccccc12)C(=O)OCC (stereo unspecified)
(A) > 100 µM (inactive)

(Q) // query: `Cc1nc2c(cc1C(=O)NN)c(=O)n(C)c(=O)n2C`
(A) > 100 µM (inactive)

(Q) // query: `CCOC(=O)c1cc2cc([N+](=O)[O-])ccc2oc1=O`
(A) 24.3 µM (inactive)

(Q) // query: OCC(O)C(O)C(O)C(O)c1nnn[nH]1 (stereo unspecified)
(A) > 100 µM (inactive)

====

Test system: T47D
Assay: NCI tumour cell line growth inhibition, 48 h
Activity calls are given as the source filed them. Rule as the data show it: active = GI50 up to about 1.1 µM and inactive = higher. Residues, ends and D or L forms follow the SMILES beside them. *: point of attachment. Ethyl(2-NMe3+) = C[N+](C)(C)CC*; Boc = CC(C)(C)OC(=O)*
endpoint: GI50

(Q) # returns recorded GI50 (system: T47D) for Cc1cn(C(C)OCCN2C(=O)c3ccccc3C2=O)c(=O)[nH]c1=O (centres undefined)
(A) > 100 µM (inactive)

(Q) // query: CC(=O)O[C@H]1C[C@]2(C)C(CCC3O[C@@]32C)[C@@]2(CC(c3ccoc3)OC2O)[C@@H]1C (some centres undefined)
(A) 39.3 µM (inactive)

(Q) // query: `Cc1cc(C)c2c(n1)S(=O)(=O)N(CCCN1CCN(c3cccc(Cl)c3)CC1)C(C(=O)c1ccc(Br)cc1)=C2O`
(A) 33.4 µM (inactive)

(Q) // query: `Clc1ccc(CSCc2ccc(Cl)cc2Cl)c(Cl)c1`
(A) 22.5 µM (inactive)

(Q) // query: `COc1ccc(-n2sc3ncc([N+](=O)[O-])cc3c2=O)cc1`
(A) > 100 µM (inactive)

(Q) // query: CCOC(=O)CCC(NC(=O)c1ccc(NCc2ccc3nc(-c4ccccc4)c(Cl)nc3c2)c2ccccc12)C(=O)OCC (centres undefined)
(A) 13.9 µM (inactive)

(Q) // query: `CC(C)(C)c1ccc(NS(=O)(=O)c2ccc(N)cc2)cc1`
(A) 28.3 µM (inactive)

(Q) // query: `O=C1COc2cc(N3CCN(c4cccc(C(F)(F)F)c4)CC3)ccc2N1`
(A) > 100 µM (inactive)

(Q) // query: CC(NC(=O)C(Cc1ccc(OCC[N+](C)(C)C)cc1)NC(=O)OC(C)(C)C)C(=O)NC(Cc1ccccc1)C(=O)NCC(N)=O (centres undefined) (Boc-Y(Ethyl(2-NMe3+))AFG-NH2; configuration not given here)
(A) 43.8 µM (inactive)

====

Test system: MCF7
Test: NCI tumour cell line growth inhibition, 48 h
Active and inactive are the calls of the source. Rule as the data show it: active = GI50 up to about 1.1 µM and inactive = higher.
Bench note: report the call from active, inactive

(Q) Identify the outcome logged in this assay for the compound shown: OCC1CCCCCCCCCCC12SCCCS2 (stereo unspecified)
(A) inactive

(Q) // query: `CCC(CON(C)c1ccccc1)(SC)SC`
(A) inactive

(Q) // query: COc1c2ccoc2nc2c(OC)c(OCC(O)C(C)(C)O)ccc12 (stereo unspecified)
(A) inactive

(Q) // query: OCC1OC(n2cnc3cccnc32)CC1O (stereo unspecified)
(A) inactive

(Q) // query: NNC(N)Nc1ccccc1 (stereo unspecified)
(A) inactive

(Q) // query: `c1ccc2c(c1)SCCCS2`
(A) inactive

(Q) // query: CC(=O)O[C@H]1C[C@]2(C)C(CCC3O[C@@]32C)[C@@]2(CC(c3ccoc3)OC2O)[C@@H]1C (stereo partly specified)
(A) inactive

(Q) // query: CCCCCCCCCCCCCCCCNCC(O)CN (stereo unspecified)
(A) inactive

(Q) // query: `C[C@]12CC[C@H]3[C@@H](CC=C4C[C@@H](N5CCCC5)CC[C@@]43C)[C@@H]1C[C@H](N1CCOCC1)[C@@H]2O`
(A) inactive

(Q) // query: NC(=O)C1Cc2cc3c(cc21)OCO3 (stereo unspecified)
(A) inactive

(Q) // query: `C=C(C)C(=O)O[C@@H]1C[C@@]2(C)O[C@@H]2C[C@H](O)/C(C)=C/[C@H]2OC(=O)C(=C)[C@@H]21`
(A) inactive

(Q) // query: `Cc1nc2c(cc1C(=O)NN)c(=O)n(C)c(=O)n2C`
(A) inactive

(Q) // query: CS(=O)(=O)N1CC(CI)c2ccc(O)cc21 (stereo unspecified)
(A) active

(Q) // query: OC(c1cccnc1Cl)c1nc2ccccc2c2ccnc(Cl)c12 (stereo unspecified)
(A) inactive

(Q) // query: `CC1=NN(c2nc(N)nc(/C(C#N)=C\c3ccc([N+](=O)[O-])s3)n2)C(C)(C)C1`
(A) active

(Q) // query: `O=C(O)c1cn2c3c(cc(N4CCN(CCO)CC4)cc3c1=O)SCC2`
(A) inactive

(Q) // query: CC(=O)OC1COC(n2c(-c3ccc(Cl)cc3)cc(-c3ccccc3)c(C#N)c2=S)C(OC(C)=O)C1OC(C)=O (stereo unspecified)
(A) inactive

(Q) // query: `CCC(=O)C(CCN1CCC2(CCCc3ccccc32)CC1)(c1ccccc1)c1ccccc1`
(A) inactive

(Q) // query: COC(=O)c1cc2c3c(cc(NCCN)c2[nH]1)N(C(=O)c1cc2cc(OC)c(OC)c(OC)c2[nH]1)CC3CCl (stereo unspecified)
(A) active

(Q) // query: `OCCSCc1cc2c(O)c(c1)Cc1cc(CSCCO)cc(c1O)Cc1cc(CSCCO)cc(c1O)Cc1cc(CSCCO)cc(c1O)C2`
(A) inactive

(Q) // query: `Cc1ccc2c(/C=C/c3ccc(N(C)C)cc3)ccc(C(C)C)cc1-2`
(A) inactive
